pIC50: −log10 of the molar value. Where a name gives a salt, the structure may show the parent alone.
# pIC50 measurements, system: MAPKAPK2 enzyme (HIS-MK2, Invitrogen PV4019) (Homo sapiens)
# Sequence (P49137 whole entry): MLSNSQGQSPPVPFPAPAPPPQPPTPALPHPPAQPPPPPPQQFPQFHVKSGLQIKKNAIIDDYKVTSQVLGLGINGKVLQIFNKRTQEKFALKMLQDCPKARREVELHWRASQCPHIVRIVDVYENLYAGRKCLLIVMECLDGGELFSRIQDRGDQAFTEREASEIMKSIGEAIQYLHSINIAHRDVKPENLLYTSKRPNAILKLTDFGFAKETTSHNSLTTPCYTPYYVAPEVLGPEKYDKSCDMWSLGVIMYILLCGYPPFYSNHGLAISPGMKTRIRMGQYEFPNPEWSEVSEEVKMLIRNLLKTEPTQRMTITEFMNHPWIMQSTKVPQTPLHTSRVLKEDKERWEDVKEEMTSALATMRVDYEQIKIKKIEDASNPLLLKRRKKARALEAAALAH
readout.type: pIC50

INSERT INTO assay_data (compound, assayed_system, readout_type, lt_gt_eq, value_observed) VALUES
  ('COc1ccc(-c2cc3c(cn2)CCc2c4c(n(C)c2-3)C2(CNC2)CNC4=O)cc1 [Example 163, hydrochloride]', 'MAPKAPK2 enzyme (HIS-MK2, Invitrogen PV4019) (Homo sapiens)', 'pIC50', '=', 8.22),
  ('CC(C)(O)CCc1ccc(-c2cc3c(cn2)CCc2c-3[nH]c3c2C(=O)NC2(CC2)C3)cc1', 'MAPKAPK2 enzyme (HIS-MK2, Invitrogen PV4019) (Homo sapiens)', 'pIC50', '=', 7.07),
  ('COc1cccc(-c2ncc3c(n2)-c2c(c4c(n2C)CC2(CNC2)NC4=O)CC3)c1 [Example 137, hydrochloride]', 'MAPKAPK2 enzyme (HIS-MK2, Invitrogen PV4019) (Homo sapiens)', 'pIC50', '=', 7.31),
  ('Cn1c2c(c3c1C1(CNC1)CNC3=O)CCc1cnc(-c3ccc(F)nc3)cc1-2 [Example 162, hydrochloride]', 'MAPKAPK2 enzyme (HIS-MK2, Invitrogen PV4019) (Homo sapiens)', 'pIC50', '=', 7.70),
  ('O=C1NCC2(CNC2)c2[nH]c3c(c21)CCc1cnc(-c2cccc(Cl)c2)cc1-3 [Example 187, hydrochloride]', 'MAPKAPK2 enzyme (HIS-MK2, Invitrogen PV4019) (Homo sapiens)', 'pIC50', '>', 8.52),
  ('CN1CC2(C1)c1[nH]c3c(c1C(=O)NC21CC1)CCc1cnc(-c2cccc(F)c2)cc1-3', 'MAPKAPK2 enzyme (HIS-MK2, Invitrogen PV4019) (Homo sapiens)', 'pIC50', '>', 8.52),
  ('CN1CC2(C1)c1[nH]c3c(c1C(=O)NC21CC1)CCc1cnc(-c2ccccc2F)cc1-3', 'MAPKAPK2 enzyme (HIS-MK2, Invitrogen PV4019) (Homo sapiens)', 'pIC50', '>', 8.52),
  ('COc1ccc(-c2ncc3c(n2)-c2[nH]c4c(c2CC3)C(=O)NCC42CNC2)cc1F [Example 268, hydrochloride]', 'MAPKAPK2 enzyme (HIS-MK2, Invitrogen PV4019) (Homo sapiens)', 'pIC50', '=', 8.10),
  ('Cn1c2c(c3c1-c1nc(-c4cncc(C(=O)NCc5ccccc5)c4)ncc1CC3)C(=O)NC1(CNC1)C2 [Example 296, hydrochloride]', 'MAPKAPK2 enzyme (HIS-MK2, Invitrogen PV4019) (Homo sapiens)', 'pIC50', '=', 7.77),
  ('CC(C)(N)CCc1ccc(-c2cc3c(cn2)CCc2c-3[nH]c3c2C(=O)NCC32CC2)cc1', 'MAPKAPK2 enzyme (HIS-MK2, Invitrogen PV4019) (Homo sapiens)', 'pIC50', '=', 7.80),
  ('COc1ccc(-c2ncc3c(n2)-c2[nH]c4c(c2CC3)C(=O)NCC42CNC2)cc1 [Example 206, hydrochloride]', 'MAPKAPK2 enzyme (HIS-MK2, Invitrogen PV4019) (Homo sapiens)', 'pIC50', '>', 8.52),
  ('COc1ccc(-c2cc3c(cn2)CCc2c-3[nH]c3c2C(=O)NCC32CCC2)cc1F', 'MAPKAPK2 enzyme (HIS-MK2, Invitrogen PV4019) (Homo sapiens)', 'pIC50', '=', 7.41),
  ('Cc1ccc(-c2cc3c(cn2)CCc2c-3[nH]c3c2C(=O)NCC32CC2)cn1', 'MAPKAPK2 enzyme (HIS-MK2, Invitrogen PV4019) (Homo sapiens)', 'pIC50', '=', 8.30),
  ('N#Cc1cc(-c2cc3c(cn2)CCc2c-3[nH]c3c2C(=O)NCC32CC2)ccc1CN1CCOCC1', 'MAPKAPK2 enzyme (HIS-MK2, Invitrogen PV4019) (Homo sapiens)', 'pIC50', '=', 7.42),
  ('Cn1c2c(c3c1C1(CNC1)CNC3=O)CCc1cnc(-c3cccc(F)c3)nc1-2 [Example 203, hydrochloride]', 'MAPKAPK2 enzyme (HIS-MK2, Invitrogen PV4019) (Homo sapiens)', 'pIC50', '=', 7.47),
  ('CN1CC2(C1)c1c(c3c(n1C)-c1cc(-c4cccc(F)c4)ncc1CC3)C(=O)NC21CC1', 'MAPKAPK2 enzyme (HIS-MK2, Invitrogen PV4019) (Homo sapiens)', 'pIC50', '=', 7.35),
  ('COc1ccc(-c2cc3c(cn2)CCc2c-3[nH]c3c2C(=O)NCC32CNC2)cc1 [Example 165, hydrochloride]', 'MAPKAPK2 enzyme (HIS-MK2, Invitrogen PV4019) (Homo sapiens)', 'pIC50', '>', 8.52),
  ('O=C1NC2(CC2)C2(CC2)c2[nH]c3c(c21)CCc1cnc(-c2ccc(N4CCNCC4)cc2)cc1-3 [Example 220, hydrochloride]', 'MAPKAPK2 enzyme (HIS-MK2, Invitrogen PV4019) (Homo sapiens)', 'pIC50', '=', 7.59),
  ('CN1CC2(CNC(=O)c3c2[nH]c2c3CCc3cnc(-c4cccc(Cl)c4)cc3-2)C1', 'MAPKAPK2 enzyme (HIS-MK2, Invitrogen PV4019) (Homo sapiens)', 'pIC50', '>', 8.52),
  ('CC(=O)OCc1ccc(-c2cc3c(cn2)CCc2c-3[nH]c3c2C(=O)NC2(CC2)C3)cn1', 'MAPKAPK2 enzyme (HIS-MK2, Invitrogen PV4019) (Homo sapiens)', 'pIC50', '=', 7.37),
  ('Cn1c2c(c3c1-c1cc(-c4cccc(C#N)c4)ncc1CC3)C(=O)NC1(CNC1)C2 [Example 132, hydrochloride]', 'MAPKAPK2 enzyme (HIS-MK2, Invitrogen PV4019) (Homo sapiens)', 'pIC50', '=', 7.85),
  ('Cn1c2c(c3c1-c1cc(-c4ccncc4)ncc1CC3)C(=O)NC1(CNC1)C2 [Example 152, hydrochloride]', 'MAPKAPK2 enzyme (HIS-MK2, Invitrogen PV4019) (Homo sapiens)', 'pIC50', '=', 7.82),
  ('COc1ccc(-c2ncc3c(n2)-c2c(c4c(n2C)C2(CNC2)CNC4=O)CC3)cc1 [Example 218, hydrochloride]', 'MAPKAPK2 enzyme (HIS-MK2, Invitrogen PV4019) (Homo sapiens)', 'pIC50', '=', 7.52),
  ('Cn1c2c(c3c1-c1cc(-c4ccc(N5CCCCC5)nc4)ncc1CC3)C(=O)NC1(CNC1)C2 [Example 149, hydrochloride]', 'MAPKAPK2 enzyme (HIS-MK2, Invitrogen PV4019) (Homo sapiens)', 'pIC50', '=', 7.64),
  ('O=C1NC2(CC2)Cc2[nH]c3c(c21)CCc1cnc(-c2ccc(CN4CCCCC4)cc2)cc1-3', 'MAPKAPK2 enzyme (HIS-MK2, Invitrogen PV4019) (Homo sapiens)', 'pIC50', '=', 7.34),
  ('COc1ccc(-c2ncc3c(n2)-c2[nH]c4c(c2CC3)C(=O)NC2(CC2)C42CNC2)cc1 [Example 214, hydrochloride]', 'MAPKAPK2 enzyme (HIS-MK2, Invitrogen PV4019) (Homo sapiens)', 'pIC50', '=', 8.22),
  ('CN1CC2(CNC(=O)c3c4c(n(C)c32)-c2cc(-c3ccc(F)nc3)ncc2CC4)C1', 'MAPKAPK2 enzyme (HIS-MK2, Invitrogen PV4019) (Homo sapiens)', 'pIC50', '=', 7.07),
  ('O=C1NC2(CC2)Cc2[nH]c3c(c21)CCc1cnc(-c2ccc(N4CCOCC4)nc2)cc1-3', 'MAPKAPK2 enzyme (HIS-MK2, Invitrogen PV4019) (Homo sapiens)', 'pIC50', '=', 7.66),
  ('CN1CCN(c2ccc(-c3cc4c(cn3)CCc3c-4[nH]c4c3C(=O)NC3(CC3)C4)cc2)CC1', 'MAPKAPK2 enzyme (HIS-MK2, Invitrogen PV4019) (Homo sapiens)', 'pIC50', '=', 7.03);
